test system: PPARg:RXRa DBDmut IVT, anti-RXR (DBD mutation: RXRa K156A/R161A, NR concentration 270 nM, RXRa partner concentration 90 nM); assay: PBM binding z-score (relative to random genomic background probes); higher = stronger binding; sequences stand for … in GC…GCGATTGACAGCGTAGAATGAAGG
Assign Yes to entries whose PBM binding z-score meets or exceeds 1; assign No to the rest.

Query: Entry ACAGACAGGTGAGTGAAGGTAACACAGCTGGACG : is its PBM binding z-score no less than 1?
Response: No

Query: For this sequence, is measured PBM binding z-score 1 or higher? CCTCGGAGGACAGAAGGCCAGAGCTGTCCGCTTT
Response: No

Query: Exam item: decide whether the reported PBM binding z-score for CCGACTGGGGCAGAAAGGGTACCATACCATCCGG is at least 1.
Response: No

Query: Item TGTCAAAGTACAAAGGTAACGTAAGTATCCACAC with PBM binding z-score of 1 or above?
Response: No

Query: Check this sequence for PBM binding z-score at or above 1: TAGCCTAGGTCATTGGGCCGGTATAGTACGCATC
Response: Yes

Query: Is reported PBM binding z-score greater than or equal to 1 here: TGAATGAGGTTAAAGATCAGGGGACGTGGCGTCG
Response: Yes

Query: hey, is PBM binding z-score for this one >= 1? ATATGTGGGTTAAGGGTCATTCAGGTTGGTTCGC
Response: Yes

Query: Is reported PBM binding z-score greater than or equal to 1 here: CCTACTGGGCCATTCAGATGTCATTGATCATATG
Response: Yes

Query: # bool: PBM binding z-score of CCTACTGGGCCAAGAAGGTCATTGATGCCGATAA >= 1
Response: Yes

Query: Hello, I need to know if CGTCCAAGGTCAGAGAGGGCAGTGAATGCCGAGT has measured PBM binding z-score not below 1. Thanks!
Response: Yes

Query: Textbook exercise: given the entry AGTCAAAGTTCATCTCGGTAACGTAAGATATGCT , state whether its PBM binding z-score is greater than or equal to 1.
Response: No

* * *

test system: LXRa homodimer (NR concentration 270 nM); experiment: PBM binding z-score (relative to random genomic background probes); higher = stronger binding; sequences stand for … in GC…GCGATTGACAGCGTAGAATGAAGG
Task for the reader: assign each of the following sequences its reported PBM binding z-score.

In plain terms, CACACTAGGTCACGAAAGGTCAAAGTCGAATGAC has a documented PBM binding z-score of 9.12

Given item TCTTGTAGATTAAAGGTTAAGAAAGCCGAAGCCT , the value recorded as its PBM binding z-score is 0.568

# PBM binding z-score of CCTATAAGTTGACCATAAGGGCAACCGAAGCTCG = 0.467

The value of PBM binding z-score measured for the sequence TCTTGTAGATCAAGCAGGTTAAAAAAGCCTGAGT turned out to be 0.0137

// AGTCAAAGTTCACTCGGTAACGTAAGATTCAGCT : PBM binding z-score value = 3.18

PBM binding z-score reported for this sequence CAAACTAAGTCACAGAGGTCAAAGTCCGTGCGTA : 5.8

Reported PBM binding z-score for CAAACTAGGTCAGAGAGGTCAAAGTCCGTGCGTA was 6.8

Value of measured PBM binding z-score for the entry GCTAATTGGTCAGTAAAAGGTCACACACCGGTCG : 5.15

Consider CGTCAAAGTTAAACTAAGGTAACGTAAAGCACGC . Its measured PBM binding z-score is 0.57

response.value for CCTACTGGGACACGAAAGGTCATTGATTCAGTGA (field: PBM binding z-score) = 5.13

# PBM binding z-score of TCGAGTAGGTTAGAGGCATTCAGAATGGCGTCGA = -0.53

ATATGTATGTTATCGGGTCATTCAGTTTGCGCAT yielded PBM binding z-score of 0.86

* * *

test system: PPARg homodimer (NR concentration 180 nM); assay: PBM binding z-score (relative to random genomic background probes); higher = stronger binding; sequences stand for … in GC…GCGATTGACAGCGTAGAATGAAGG
Parameter Measured: PBM binding z-score
API note: the answer field is a bare number with no unit suffix.

GET /value?item= TCTATTAGTAGAAGGGCAACCGACGAGTCCGTTT &field=PBM binding z-score returns 0.492

Record AGAATGAGGTTATTAAGAGCAGGGAATTGCGGTC , field PBM binding z-score: 0.998

Reported PBM binding z-score for AGAATGAGGTTAAGATCAGGTAAACAGAATACAT was 0.782

The sequence listed as CCATACGGGTCACTCCAGGTTATAGCATCGGAGT has a reported PBM binding z-score of 1.66

Entry TTACTAAGGTGAAGGTCGTTGATCCCTCTGTAGA ; PBM binding z-score = 1.39

Kindly note the recorded PBM binding z-score for TGTTGTAGATCAGCAGGTTAAGAAAGCTGGCCAA , which is -0.701

// PBM binding z-score lookup, sequence = CGTACAAGGTCATAGGAGGTCAGTGAAGACAGAT , result: 3.74

The recorded PBM binding z-score for ATCTCTAGGTAAAATTCAGTGAAAGATCGATAGA is 1.04

Entry CGAACGAGGGCAGGAGTTGATAGCAAATGCCGAT , PBM binding z-score reported as -0.323

Record summary for ATCTCTACGTAACCAAGTTCAGTGAATGCCGAAC : reported PBM binding z-score = 0.739

Recorded result, CCTTACGGGTCAAGTTTATAGCACGGGTGGTACG , PBM binding z-score: 4.02

sequence TAGCCTAGGTCAGATCGGGCCACTATACGCTATA , PBM binding z-score observed: 0.204

* * *

system: PPARg:RXRa DBDmut IVT, anti-RXR (DBD mutation: RXRa K156A/R161A, NR concentration 270 nM, RXRa partner concentration 90 nM); assay: PBM binding z-score (relative to random genomic background probes); higher = stronger binding; sequences stand for … in GC…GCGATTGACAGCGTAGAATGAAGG
For each entry below, report its PBM binding z-score value.
The answer should be written as a number, with no unit following it.

For this sequence ( CCTTACGGGTCACGAGGTTATAACACGACGAGCG ), measured PBM binding z-score is 3.55

# sequence CCGACTGGGGCAAGTTTACCATAACGCACAGCCA ; its PBM binding z-score = 3.19

Record summary for TAGCCTAGGTCATTGGGCCCGTATAGTACGCATC : reported PBM binding z-score = 1.78

The value of PBM binding z-score measured for the sequence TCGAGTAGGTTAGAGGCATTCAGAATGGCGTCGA turned out to be 1.65

// PBM binding z-score value for GCGACTGGGGAATCAGCAGGTTACCATAACTTAA : 0.44

PBM binding z-score reading for TGAACGAGGTTAAAGATCAGGGAACGTGGCGTCG : 1.29

Documented PBM binding z-score of ATCGAAAGGTCGAGGTGAGTGTAGAGAAAGGGAA : 0.382

Briefly, PBM binding z-score measured for GCTTACGGGTCAAAGGTTATAGGATGAATAGAAT : 4.59

Note to self: PBM binding z-score recorded for CCTCGGGGGACAACAGGAGGTCAGAGCTGCCAGA was 0.622

Entry TTACCAAGGTGAAGGACGTTGATCCCTCTGTAGA ; PBM binding z-score = 1.55

The reported PBM binding z-score of the sequence CCTTACGGGTCACTAACAGGTTATAGCATTTGGA was 2.88

Please fill in: PBM binding z-score reported for TCTTATAGATCAGCAGGTTAAGAAAGCTGGCCAA = 1.67
